binders and their reported kon
- testTarget: T1, PD-1 molecule (refolded, purified and biotinylated PD-1 of Example 2) (UniProt Q15116 33-150, biotinylated with BirA enzyme (site not stated))
- T1 construct: also called Programmed Death-1
- T1 sequence (Q15116 33-150 limits assumed): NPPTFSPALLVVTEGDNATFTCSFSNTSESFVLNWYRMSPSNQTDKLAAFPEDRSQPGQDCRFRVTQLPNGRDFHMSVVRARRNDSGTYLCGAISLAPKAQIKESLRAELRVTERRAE
- assayProtocol: SPR (BIAcore T200), single-cycle kinetics; biotinylated PD-1 captured via streptavidin, PDL-1 variant in solution
- Method: The anti-streptavidin antibody (GenScript) was added to the coupling buffer (10 mM sodium acetate buffer, pH 4.77). The antibody was then flowed through a CMS chip previously activated with EDC and NHS to immobilize the antibody on the chip surface. Finally, the unreacted activation surface was blocked with a solution of ethanolamine hydrochloride to complete the coupling process. […]
// return numeric value only (unit: M⁻¹ s⁻¹, not printed)

binder	kon, M⁻¹ s⁻¹
high affinity PDL-1 molecule L1A4 (ligand) WTVTVPKDLYVVEYGSNMTIECKFPVEKQLDLAALQVFWMMEDKNIIQFVHGEEDLKVQHSSYRQRARLLKDQLSLGNAALQITDVKLQDAGVYTCLISYGGADYKRITVKVNAPYNKINQRILVVDPVTSEHELTCQAEGYPKAEVIWTSSDHQVLSGKTTTTNSKREEKLFNVTSTLRINTTTNEIFYCTFRRLDPEENHTAELVIPEL	48000

So for high affinity PDL-1 molecule L3D9 (ligand) FTVTVPKDLYVVEYGSNMTIECKFPVEKQLDLAALNVFWFMEDKNIIQFVHGEEDLKVQHSSYRQRARLLKDQLSLGNAALQITDVKLQDAGVYTCLIGYEGADYKRITVKVNAPYNKINQRILVVDPVTSEHELTCQAEGYPKAEVIWTSSDHQVLSGKTTTTNSKREEKLFNVTSTLRINTTTNEIFYCTFRRLDPEENHTAELVIPEL , the logged kon turned out to be 25700

So for high affinity PDL-1 molecule L2B8 (ligand) FTVTVPKDLYVVEYGSNMTIECKFPVEKQLDLAALQVHWFMEDKNIVSFVHGEEDLKVQHSSYRQRARLLKDQLSLGNAALQITDVKLQDAGVYRCMISYGGADYKRITVKVNAPYNKINQRILVVDPVTSEHELTCQAEGYPKAEVIWTSSDHQVLSGKTTTTNSKREEKLFNVTSTLRINTTTNEIFYCTFRRLDPEENHTAELVIPEL , the logged kon turned out to be 12800

All figures here come from patent US20180291081A1.
